Source of measurements: the supplement of paper PMC12494721

System: Klebsiella aerogenes DSM 30053
protocol.summary: fold change of Cadaverine concentration vs plate DMSO controls (fold change (ratio)); higher = more amine produced, active = hit call of the paper (significant change in both replicates, either direction)
experimental.parameters: incubation time: 27 h, anaerobic, 37 °C
Structures can show the parent of a compound that is named as a salt.
Reported fold change of Cadaverine concentration by item:
Give only the figure.

# annotated cases, reported fold change of Cadaverine concentration shown
> print(dat)
                                   compound  readout.number
1  CC(=O)[C@@]1(O)CC[C@H]2[C@@H]3C[C@H](C)C4=CC(=O)C=C[C@]4(C)[C@@]3(F)[C@@H](O)C[C@@]21C [Fluorometholone] (20 µM)           0.983
2  CC(=O)Oc1ccccc1C(=O)Nc1ncc([N+](=O)[O-])s1 [Nitazoxanide] (20 µM)            1.01
3  CNc1ncnc2c1ncn2[C@@H]1O[C@H](CO)[C@@H](O)[C@H]1O [N6-methyladenosine] (20 µM)               1
4  O=C1CN(/N=C/c2ccc(-c3ccc([N+](=O)[O-])cc3)o2)C(=O)N1 [Dantrolene sodium salt] (20 µM)            0.99
5  O=P(O)(O)C(O)(Cn1ccnc1)P(=O)(O)O [Zoledronic acid hydrate] (20 µM)               1

Task item: State its fold change of Cadaverine concentration: OCC(CO)N[C@H]1C[C@](O)(CO)[C@@H](O)[C@H](O)[C@H]1O [Voglibose] (20 µM)
Reply: 1.01

---

Reported growth by item:
System: Klebsiella aerogenes DSM 30053
protocol.summary: growth (OD595) fold change vs plate DMSO controls (fold change (ratio)); higher = more growth
experimental.parameters: incubation time: 27 h, anaerobic, 37 °C
Where a name gives a salt, the structure may show the parent alone.
Give only the figure.

# annotated cases, reported growth shown
compound	growth
[S] (20 µM)	0.964
C=CCOc1ccc(CC(=O)O)cc1Cl [Alclofenac] (20 µM)	0.98
C[C@@H]1C[C@H]2[C@@H]3C[C@H](F)C4=CC(=O)C=C[C@]4(C)[C@@]3(F)[C@@H](O)C[C@]2(C)[C@@]1(O)C(=O)COC(=O)C(C)(C)C [Flumethasone pivalate] (20 µM)	1
Cc1ccsc1/C=C/C1=NCCCN1C [Morantel tartrate] (20 µM)	1.08
CCCCOc1cc(C(=O)NCCN(CC)CC)c2ccccc2n1 [Dibucaine] (20 µM)	1.06

Task item: Return reported growth for target or system Klebsiella aerogenes DSM 30053, item CC1CCc2c(N3CCC(O)CC3)c(F)cc3c(=O)c(C(=O)O)cn1c23 (centres undefined) [Nadifloxacin] (20 µM) .
Reply: 0.316

Task item: Return reported growth for target or system Klebsiella aerogenes DSM 30053, item O=C(CCCN1CCN(c2ccccn2)CC1)c1ccc(F)cc1 [Azaperone] (20 µM) .
Reply: 0.974

Task item: Return reported growth for target or system Klebsiella aerogenes DSM 30053, item CC1=C(C)C(=O)C(C(CCCCCC(=O)O)c2ccccc2)=C(C)C1=O (centres undefined) [Seratrodast] (20 µM) .
Reply: 1

Task item: Return reported growth for target or system Klebsiella aerogenes DSM 30053, item CN(C)CCOC(c1ccc(Cl)cc1)c1ccccn1 (centres undefined) [Carbinoxamine maleate salt] (20 µM) .
Reply: 0.985

---

Reported fold change of Cadaverine concentration by item:
Test system: Klebsiella aerogenes DSM 30053
protocol.summary: fold change of Cadaverine concentration vs plate DMSO controls (fold change (ratio)); higher = more amine produced, active = hit call of the paper (significant change in both replicates, either direction)
experimental.parameters: incubation time: 27 h, anaerobic, 37 °C
Give only the figure.

Task item: Return reported fold change of Cadaverine concentration for target or system Klebsiella aerogenes DSM 30053, item COc1cc(C(=O)N2CCOCC2)cc(OC)c1OC [Trimetozine] (20 µM) .
Reply: 1

Task item: Return reported fold change of Cadaverine concentration for target or system Klebsiella aerogenes DSM 30053, item OCC(O)CN1CCN(c2ccccc2)CC1 (stereo not drawn) [Dropropizine] (20 µM) .
Reply: 0.992

Task item: Return reported fold change of Cadaverine concentration for target or system Klebsiella aerogenes DSM 30053, item CC[N+](C)(C)c1cccc(O)c1 [Edrophonium chloride] (20 µM) .
Reply: 1

---

Tested on: Ruminococcus gnavus DSM 108212
protocol.summary: fold change of Tryptamine concentration vs plate DMSO controls (fold change (ratio)); higher = more amine produced, active = hit call of the paper (significant change in both replicates, either direction)
experimental.parameters: incubation time: 27 h, anaerobic, 37 °C
Where a name gives a salt, the structure may show the parent alone.
readout.name: fold change of Tryptamine concentration
Give only the figure.

# annotated cases, reported fold change of Tryptamine concentration shown
> print(dat)
                                   compound  readout.number
1  CN[C@@H]1[C@H](O)[C@H](NC)[C@H]2O[C@@]3(O)C(=O)C[C@@H](C)O[C@H]3O[C@@H]2[C@H]1O [Spectinomycin dihydrochloride] (20 µM)           0.991
2  CC(=O)Nc1cccc(O)c1 [Metacetamol] (20 µM)           0.999
3  C[C@H](CCc1ccccc1)NC[C@H](O)c1ccc(O)c(C(N)=O)c1 [Dilevalol] (20 µM)            0.98
4  Cc1ccsc1C(=CCCN1CCC[C@@H](C(=O)O)C1)c1sccc1C [Tiagabine hydrochloride] (20 µM)           0.971
5   Nc1nc(=O)[nH]cc1F [Flucytosine] (20 µM)           0.987

Task item: State its fold change of Tryptamine concentration: CCOC(=O)CC(=O)N1CCSC1COc1ccccc1OC (configuration not stated) [Moguisteine] (20 µM)
Reply: 0.978

Task item: State its fold change of Tryptamine concentration: C#C[C@]1(O)CC[C@H]2[C@@H]3CCC4=CCCC[C@@H]4[C@H]3CC[C@@]21C [Lynestrenol] (20 µM)
Reply: 0.985

---

System: Ruminococcus gnavus DSM 108212
protocol.summary: growth (OD595) fold change vs plate DMSO controls (fold change (ratio)); higher = more growth
experimental.parameters: incubation time: 27 h, anaerobic, 37 °C
Structures can show the parent of a compound that is named as a salt.
readout.name: growth
Give only the figure.

compound	measured.on	growth
OC[C@H]1OC(O)[C@H](O)[C@@H](O)[C@@H]1O (some centres not stated) [Glucose/Dextrose] (50 µM)	Ruminococcus gnavus DSM 108212	1.19
CCOc1ccc2nc(S(N)(=O)=O)sc2c1 [Ethoxzolamide] (20 µM)	Ruminococcus gnavus DSM 108212	0.925
c1ccc(C2CN3CCSC3=N2)cc1 (configuration not stated) [Tetramisole hydrochloride] (20 µM)	Ruminococcus gnavus DSM 108212	0.976
O=C1Nc2ccccc2C1(c1ccc(O)cc1)c1ccc(O)cc1 [Oxyphenisatin] (20 µM)	Ruminococcus gnavus DSM 108212	0.994
COC(=O)Nc1nc2cc(Sc3ccccc3)ccc2[nH]1 [Fenbendazole] (20 µM)	Ruminococcus gnavus DSM 108212	1.09

Task item: State its growth: CO[C@@H]1[C@@H](O[C@@H]2O[C@H](C)[C@@H](O[C@H]3C[C@@](C)(O)[C@@H](OC(=O)CC(C)C)[C@H](C)O3)[C@H](N(C)C)[C@H]2O)[C@@H](CC=O)C[C@@H](C)[C@@H](O)/C=C/C=C/C[C@@H](C)OC(=O)C[C@H]1OC(C)=O [Josamycin] (20 µM)
Reply: 0.124

Task item: State its growth: CCOc1ccc2nc3cc(N)ccc3c(N)c2c1 [Ethacridine lactate] (20 µM)
Reply: 0.954

Task item: State its growth: Nc1ccc(S(=O)(=O)NC(=O)c2ccccc2)cc1 [Sulfabenzamide] (20 µM)
Reply: 1.1

Task item: State its growth: CC(C(=O)O)c1ccc(-c2ccccc2)c(F)c1 (configuration not stated) [Flurbiprofen] (20 µM)
Reply: 1.02

Task item: State its growth: COc1cc([S+](C)[O-])ccc1-c1nc2cccnc2[nH]1 (configuration not stated) [Sulmazole] (20 µM)
Reply: 1.1

Task item: State its growth: CC(C)NC[C@@H](O)COc1cccc2ccccc12 [(R) Propranolol hydrochloride] (20 µM)
Reply: 0.617

Task item: State its growth: CC(Oc1ccccc1)C(=O)N[C@@H]1C(=O)N2[C@@H]1SC(C)(C)[C@@H]2C(=O)O (some centres not stated) [Phenethicillin potassium salt] (20 µM)
Reply: 0

Task item: State its growth: O=c1[nH]cc(F)c(=O)[nH]1 [5-fluorouracil] (20 µM)
Reply: 1.21

---

Test system: Klebsiella aerogenes DSM 30053
protocol.summary: fold change of Putrescine concentration vs plate DMSO controls (fold change (ratio)); higher = more amine produced, active = hit call of the paper (significant change in both replicates, either direction)
experimental.parameters: incubation time: 27 h, anaerobic, 37 °C
Counter-ions that a name gives are not always drawn.
readout.name: fold change of Putrescine concentration
Give only the figure.

# annotated cases, reported fold change of Putrescine concentration shown
compound	measured.on	fold change of Putrescine concentration
NC(=O)c1cn(Cc2c(F)cccc2F)nn1 [Rufinamide] (20 µM)	Klebsiella aerogenes DSM 30053	0.995
Cc1ccc(C(=O)c2ccc(CC(=O)O)n2C)cc1 [Tolmetin sodium salt dihydrate] (20 µM)	Klebsiella aerogenes DSM 30053	1.01
C[C@@H]1CCC[C@H](C)N1NC(=O)c1ccc(Cl)c(S(N)(=O)=O)c1 [Clopamide] (20 µM)	Klebsiella aerogenes DSM 30053	1.03

# input for lookup
Task item: Return reported fold change of Putrescine concentration for target or system Klebsiella aerogenes DSM 30053, item NC[C@H]1O[C@H](O[C@H]2[C@H](O)[C@@H](O[C@H]3O[C@H](CO)[C@@H](O)[C@H](N)[C@H]3O)[C@H](N)C[C@@H]2N)[C@H](N)C[C@@H]1O [Tobramycin] (20 µM) .
Reply: 0.922
